molecular target: T1, human MSLN-FL-his protein (human, UniProt Q13421 296-580); assay: SPR (Biacore), antibody captured on Protein A chip;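 also: measured at 25 °C, analyte injected 240 s in five twofold dilutions from 200 nM, dissociation up to 600 s, double-referenced, fitted with Langmuir 1:1 model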
T1 construct: made in HEK293E cells, purified on nickel column; also called hMSLN-FL-his; human MSLN full-length protein; not shown: His tag
T1 sequence (Q13421 other isoform, or with tags, fused parts or gaps): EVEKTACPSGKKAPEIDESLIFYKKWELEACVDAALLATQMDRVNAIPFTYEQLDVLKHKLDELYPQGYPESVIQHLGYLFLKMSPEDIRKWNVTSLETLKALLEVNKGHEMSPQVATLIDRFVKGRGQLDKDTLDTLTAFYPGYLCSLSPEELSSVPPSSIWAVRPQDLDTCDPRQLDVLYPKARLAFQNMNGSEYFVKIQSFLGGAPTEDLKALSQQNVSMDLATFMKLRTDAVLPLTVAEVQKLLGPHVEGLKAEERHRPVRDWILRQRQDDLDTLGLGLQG
PARAMETER_MEASURED: koff

For the binder S009-F6-62.5 (antibody, human IgG1, kappa, V domains shown, human-murine chimeric antibody, human IgG1/kappa constant regions) VH: QVQLQQPGTELVKPGASVKLSCRASGYTFTAYWMHWVKQRPGQGLEWIGNINPSNGGTDFNEKFKSKATLTVDKSSSTAYMQLSSLTSEDSAVYYCARGRGYFDVWGTGTTVTVSS VL: DILLTQSPAILSVSPGERVSFSCRASKNIGTSIHWYQQRTNGSPRLLIKYASESISGIPSRFSGSGSGTDFTLNINSVESEDIADYYCQQSNSWPTLTFGAGTKLELKR , give its measured koff value.
0.0173 s⁻¹

For the binder S009-F3.80.22 (antibody, human IgG1, kappa, V domains shown, human-murine chimeric antibody, human IgG1/kappa constant regions) VH: QVQLQQSGAELVRPGASVTLSCKASGYTFTDYEIHWVKQTPVHGLEWIGAFDPEIGGSAYNQKFKDRATLTADKSSSTAYMELHSLTAEDSAVYYCTDYYGSSSGYFDVWGTGTTVTVSS VL: DVVMTQTPLSLPVSLGDQASISCRSSQSLEHNNGNTYLHWFLHKPGQSPKLLIYKVSNRFSGVPDRFSGSGSGTDFTLKISRVEAEDLGVYFCSQSTHVPFTFGSGTKLEIKR , give its measured koff value.
0.000332 s⁻¹

For the binder S009-F2.23.12 (antibody, human IgG1, kappa, V domains shown, human-murine chimeric antibody, human IgG1/kappa constant regions) VH: QVQLQQPGTELVKPGASVKLSCKASGYTFTNYWMHWVKQRPGQGLEWIGNINPSNGGPYYNERFRSKATLTVDKSSSTAYMQLSSLTSEDSAVYYCARPYYGSSYGYFDYWGQGTTLTVSS VL: DIQMTQSPSSLSASLGGKVTITCKASQDINKYIAWYQHKPGKGPRLLIHYTSELQPGIPSRFSGNGSGRDYSFSISNLEPEDIATYYCLQYANPLRTFGGGTKLEIKR , give its measured koff value.
0.000714 s⁻¹
